B1: WW domain-containing transcription regulator protein 1, residues 116 to 162; numbered along this chain, Q9GZV5 (parent)
chain: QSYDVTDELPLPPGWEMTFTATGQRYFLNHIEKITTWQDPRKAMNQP

Variants of: B1
Procedure Text: abundance fitness (aPCA) (normalised: wild type 0, dead -1); higher = more abundant; growth selection in yeast, the domain comes from the species named
Test Conditions: Homo sapiens
So basically: abundance fitness at -0.2 or higher? That is yes. Lower than -0.2? That is no.

Sequence Variant	Class Assignment
Q46V	yes
E8M	yes
M44K	yes
T20Q	no
E16D	yes
E16M	no
A21R	yes
I34F	yes
E16T	no
E8C	yes
G23F	no
Q24G	no
F19W	yes
Q1Y	yes
M44Y	yes
Q24L	no
K42R	yes
I34C	yes
Q38H	yes
